Biological target: Regulator of G-protein signaling 4 (Rattus norvegicus) (UniProt P49799)
Sequence (P49799 whole entry, looked up): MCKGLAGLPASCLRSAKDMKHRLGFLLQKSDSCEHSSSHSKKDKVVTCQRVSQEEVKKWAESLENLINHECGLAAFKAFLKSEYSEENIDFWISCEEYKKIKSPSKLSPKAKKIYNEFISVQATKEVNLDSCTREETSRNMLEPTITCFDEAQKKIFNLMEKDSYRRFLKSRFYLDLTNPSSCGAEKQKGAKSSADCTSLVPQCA
Assay: RGS4 binding to activated Galpha-o blockers – biochemical, rat RGS4, AlF4-dependent, flow cytometry bead assay, dose response (AID 588523)
Conditions: FCPIA, bead fluorescence
The source made the active and inactive calls.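 Rule for the calls: active = IC50 below 100 µM from duplicate concentration-response curves; inactive = IC50 above 100 µM.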
Possible outcomes: 1 = active, 0 = inactive

{"compound": "CCOC(=O)C1=C(O)/C(=C\\c2cccc(OC)c2)N=C1C", "class assignment": 0}
{"compound": "Cc1ccc(/C=C/C(=O)N2CC(C)CC(C)C2)o1 (stereo not drawn)", "class assignment": 1}
{"compound": "Cn1c(OCc2ccco2)nc2c1c(=O)n(Cc1ccc(Cl)c(Cl)c1)c(=O)n2C", "class assignment": 0}
{"compound": "N#C/C(=C/c1ccc(Cl)c([N+](=O)[O-])c1)c1ccccn1", "class assignment": 0}
{"compound": "O=C1C=C(NC2=CC3OC(c4ccccc4)OCC3OC2=O)CCC1 (stereo not drawn)", "class assignment": 0}
{"compound": "Oc1c(Cl)cc(Cl)c2c1NCCC2", "class assignment": 0}
{"compound": "O=C1N=c2ccccc2=C1c1c(O)n(-c2cccc(F)c2)[nH]c1=O", "class assignment": 1}
{"compound": "COc1cccc(/C=C/C(=O)c2c(O)cc(C)oc2=O)c1O", "class assignment": 0}
{"compound": "O=C1/C(=C\\c2ccc(Cl)cc2Cl)N2CCC1CC2", "class assignment": 0}
{"compound": "O=C/C=C/c1c(-c2ccccc2)cc2oc3ccccc3cc1-2", "class assignment": 0}
{"compound": "O=C(N/N=C/c1cc([N+](=O)[O-])ccc1O)NC12CC3CC(CC(C3)C1)C2", "class assignment": 0}
{"compound": "O=C(O)c1ccc2c(c1)C(=O)N(c1cccc(C(=O)/C=C/c3ccccc3)c1)C2=O", "class assignment": 0}
{"compound": "O=C(CCNc1ccc(F)cc1)c1ccco1", "class assignment": 0}
{"compound": "Cc1ccc(C(C2=C(O)CC(C)(C)CC2=O)C2C(=O)CC(C)(C)CC2=O)o1 (stereo not drawn)", "class assignment": 0}
{"compound": "Cc1ccc(CNC(=O)c2cn(C3CCCCC3)c(=O)c3c2c2ccccc2n3C)o1", "class assignment": 0}
{"compound": "COC(=O)CSc1[nH]c2ccccc2c1[N+](=O)[O-]", "class assignment": 0}
{"compound": "O=C1/C(=C\\c2ccc(Cl)c(Cl)c2)N2CCC1CC2", "class assignment": 0}
{"compound": "O=C1/C(=C/c2ccncc2)CCC/C1=C\\c1ccncc1", "class assignment": 1}
{"compound": "Cc1cc(-c2n[nH]c(=S)n2/N=C/C(Br)=C/c2ccccc2)n[nH]1", "class assignment": 1}
{"compound": "CN(C)c1ccc(C(C[N+](=O)[O-])c2c(N)n(C)c(=O)n(C)c2=O)c(F)c1C#N (stereo not drawn)", "class assignment": 0}
{"compound": "CCOCCCNC(=O)/C(C#N)=C\\c1ccc([N+](=O)[O-])o1", "class assignment": 0}
{"compound": "COc1ccc(C(C[N+](=O)[O-])c2c(-c3ccccc3)cc3ccccn23)cc1OC (stereo not drawn)", "class assignment": 0}
{"compound": "Cc1cccc(N2C(=O)/C(=C/c3ccc(C(=O)O)cc3)c3ccccc3C2=O)c1", "class assignment": 0}
